Molecular target: human TLR8 (Homo sapiens)
Sequence (Q9NR97 27-1041): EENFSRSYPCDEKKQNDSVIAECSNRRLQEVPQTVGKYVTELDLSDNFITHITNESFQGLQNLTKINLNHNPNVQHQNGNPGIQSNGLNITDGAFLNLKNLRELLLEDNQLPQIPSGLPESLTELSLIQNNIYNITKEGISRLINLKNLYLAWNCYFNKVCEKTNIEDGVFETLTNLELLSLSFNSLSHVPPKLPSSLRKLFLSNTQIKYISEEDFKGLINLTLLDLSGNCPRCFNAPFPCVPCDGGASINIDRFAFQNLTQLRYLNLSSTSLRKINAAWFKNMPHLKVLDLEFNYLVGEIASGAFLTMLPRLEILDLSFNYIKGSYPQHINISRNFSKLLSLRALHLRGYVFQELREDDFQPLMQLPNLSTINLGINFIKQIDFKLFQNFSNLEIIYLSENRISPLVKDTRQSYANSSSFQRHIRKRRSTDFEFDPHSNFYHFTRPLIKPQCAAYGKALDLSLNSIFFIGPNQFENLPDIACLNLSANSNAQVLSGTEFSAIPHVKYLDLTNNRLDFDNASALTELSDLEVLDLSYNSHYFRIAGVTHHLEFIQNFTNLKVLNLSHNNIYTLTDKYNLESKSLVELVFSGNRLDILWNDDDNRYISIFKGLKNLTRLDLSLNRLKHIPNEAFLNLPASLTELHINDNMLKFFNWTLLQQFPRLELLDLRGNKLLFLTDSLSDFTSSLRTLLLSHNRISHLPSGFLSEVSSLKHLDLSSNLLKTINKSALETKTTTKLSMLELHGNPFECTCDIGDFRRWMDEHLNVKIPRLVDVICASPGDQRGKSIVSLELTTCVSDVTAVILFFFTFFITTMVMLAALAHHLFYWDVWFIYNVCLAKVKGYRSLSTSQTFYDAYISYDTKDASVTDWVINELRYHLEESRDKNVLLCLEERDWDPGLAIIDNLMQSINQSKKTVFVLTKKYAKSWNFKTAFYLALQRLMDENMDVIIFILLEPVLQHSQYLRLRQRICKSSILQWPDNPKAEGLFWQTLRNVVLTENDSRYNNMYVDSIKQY
Assay: TLR8 inhibition reporter assay (HEK-Blue cells, SEAP reporter, R848 stimulation)
Conditions: HEK-Blue cells overexpressing human TLR8, SEAP reporter, R848 15.9 μM
Description: TLR7/8/9 Inhibition Reporter Assays HEK-Blue™-cells (Invivogen) overexpressing human TLR7, TLR8 or TLR9 receptors were used for screening inhibitors of these receptors using an inducible SEAP (secreted embryonic alkaline phosphatase) reporter gene under the control of the IFN-β minimal promoter fused to five NF-κB and AP-1-binding sites. […]
Rule: measured IC50 below 10 nM gets fulfilled; anything equal to or greater than 10 nM gets not fulfilled.

COc1cc(-c2[nH]c3ccc(C4CC5CN(C6COC6)CC5C4)cc3c2C(C)C)cn2ncnc12 (stereo not drawn)
not fulfilled
Cc1cc(-c2[nH]c3ccc([C@@H]4C[C@H]4C(=O)NC4CC5CCN4CC5)cc3c2C(C)C)ccn1 (stereo partly drawn) [Example 461]
not fulfilled
COc1cc(-c2[nH]c3ccc(C4CN(C(C)C)CCO4)cc3c2C(C)C)cn2ncnc12 (stereo not drawn) [Example 302]
fulfilled
CN[C@H](C)C(=O)N1CCCC(c2ccc3[nH]c(-c4cc(C)nc(C)c4)c(C(C)C)c3c2)C1 (stereo partly drawn) [Example 221]
fulfilled
CNC(=O)CN1CC(c2ccc3[nH]c(-c4cn5ncnc5c(C)c4C)c(C(C)C)c3c2)OCC1(C)C (stereo not drawn) [Example 388]
not fulfilled
Cc1cc(-c2[nH]c3ccc(C4CCC(O)CC4)cc3c2C(C)C)cc(C)n1 (single isomer, unassigned) [Example 171]
not fulfilled
CC(C)c1c(-c2ccnc3[nH]ncc23)[nH]c2ccc(CC3CCNCC3)cc12
fulfilled
Cc1cc(-c2[nH]c3ccc(C4CN(C(=O)CN(C)C)CCO4)cc3c2C(C)C)cc(C)n1 (stereo not drawn) [Example 335]
not fulfilled
COCCN1CCOC(c2ccc3[nH]c(-c4cc(C)nc(C)c4)c(C(C)C)c3c2)C1 (stereo not drawn)
not fulfilled
Cc1c(-c2[nH]c3ccc(C4CN(CC(=O)N(C)C)CCO4)cc3c2C(C)C)cn2ncnc2c1C (stereo not drawn) [Example 321]
not fulfilled
CCc1c(-c2ccc(OC)c(OC)c2)[nH]c2ccc(CC3CCCN3)cc12 (stereo not drawn)
not fulfilled
Cc1c(-c2[nH]c3ccc(C4CCC(N5CC(CO)(CO)C5)CC4)cc3c2C(C)C)cn2ncnc2c1C (single isomer, unassigned) [Example 26]
fulfilled
Cc1cc(-c2[nH]c3ccc(C4CN(C(C)C)CCO4)cc3c2C(C)C)cc(C)n1 (stereo not drawn) [Example 305]
fulfilled
COc1cc(-c2[nH]c3ccc(C4CCCN(CC(N)=O)C4)cc3c2C(C)C)cn2ncnc12 (stereo not drawn) [Example 225]
not fulfilled
COc1cc(-c2[nH]c3ccc(C4CCC(N(C)CCS(C)(=O)=O)CC4)cc3c2C(C)C)cn2ncnc12 (stereo not drawn)
fulfilled
Cc1c(-c2[nH]c3ccc(C4CN(C5COC5)C4)cc3c2C(C)C)cn(C)c(=O)c1C
not fulfilled
COc1cc(-c2[nH]c3ccc(C4CCC(NC5COC5)CC4)cc3c2C(C)C)cn2ncnc12 (stereo not drawn) [Example 90]
fulfilled
Cc1c(-c2[nH]c3ccc(C4CC(NCC(=O)N(C)C)C4)cc3c2C(C)C)cn2ncnc2c1C (stereo not drawn)
fulfilled
Cc1cc(-c2[nH]c3ccc(C4CCC(NC(=O)CN(C)C)CC4)cc3c2C(C)C)cc(C)n1 (stereo not drawn) [Example 119]
fulfilled
Cc1c(-c2[nH]c3ccc(C4CCC(N5CC(F)(F)C5)CC4)cc3c2C(C)C)cn2ncnc2c1C (stereo not drawn) [Example 25]
not fulfilled
CNC(=O)CN1CC2CC(c3ccc4[nH]c(-c5cn6ncnc6c(C)c5C)c(C(C)C)c4c3)CC2C1 (stereo not drawn)
not fulfilled
Cc1c(-c2[nH]c3ccc(C4CCC(NCC(=O)N(C)C)CC4)cc3c2C(C)C)cn2cnnc2c1C (stereo not drawn) [Example 517]
not fulfilled
Cc1cc(-c2[nH]c3ccc(C4CN(CC(C)(C)O)CCO4)cc3c2C(C)C)cc(C)n1 (stereo not drawn) [Example 357]
fulfilled
CNC(=O)CN1CCOC(c2ccc3[nH]c(-c4cc(C)c5ncnn5c4)c(C(C)C)c3c2)C1 (stereo not drawn) [Example 317]
not fulfilled
CNC1CCC(c2ccc3[nH]c(-c4cc(OC)c5ncnn5c4)c(C(C)C)c3c2)CC1 (single isomer, unassigned) [Example 145]
fulfilled
Cc1c(-c2[nH]c3ccc(C4CCC(NC5CC5)CC4)cc3c2C(C)C)cn2ncnc2c1C (stereo not drawn) [Example 14]
fulfilled
Cc1cc(-c2[nH]c3ccc(CCN4CCCC(F)(F)C4)cc3c2C(C)C)cn(C)c1=O
not fulfilled
Cc1c(-c2[nH]c3ccc(C4CCCN(C(=O)CN(C)C)C4)cc3c2C(C)C)cn2ncnc2c1C (stereo not drawn)
fulfilled
Cc1cc(-c2[nH]c3ccc(C4CN(CCS(C)(=O)=O)CCO4)cc3c2C(C)C)cc(C)n1 (stereo not drawn) [Example 351]
not fulfilled
